tested on: SW-620; experiment: NCI tumour cell line growth inhibition, 48 h
Active and inactive are the calls of the source. Cut-off read from the data, not from the text of the source: active = GI50 up to about 1.1 µM and inactive = higher.
Hi there, use one of these labels in your reply, thanks! y for active, n for inactive

Ask | Any idea what this test logged for CCCCn1/c(=N/C(=S)N(C)C)ss/c1=N\C(=S)N(C)C ?
Reply | n

Ask | Any idea what this test logged for Oc1cc(-c2ccccc2)cn2c1nc1ccccc12 ?
Reply | y

Ask | Any idea what this test logged for CC1=C2C(=O)NN=C2CCN1c1ccc(Br)cc1 ?
Reply | n

Ask | Any idea what this test logged for CC1(C)CC2(C)OC(=N)C1(C#N)C2(C#N)C#N (configuration not stated) ?
Reply | n

Ask | Any idea what this test logged for CC1OC(O[C@H]2C3C=CO[C@@H](OC4OC(CO)C(O)C(O)C4O)C3[C@@]3(COC(=O)/C=C/c4ccccc4)O[C@@H]23)C(O)C(O)C1O (some centres not stated) ?
Reply | n

Ask | Any idea what this test logged for COC1CCC(O)C(CO)O1 (configuration not stated) ?
Reply | n

Ask | Any idea what this test logged for COc1cc(/C=N/N=C(\N)NO)c(Cl)cc1O ?
Reply | n

Ask | Any idea what this test logged for CCOC(=O)c1nnsc1NC(=O)NCCCCCCn1c(=O)n(CCCCCCNC(=O)Nc2snnc2C(=O)OCC)c(=O)n(CCCCCCNC(=O)Nc2snnc2C(=O)OCC)c1=O ?
Reply | n

Ask | Any idea what this test logged for COc1cc2c(cc1OC)CCN=C2 ?
Reply | n

Ask | Any idea what this test logged for C[C@H](CCC(=O)O)[C@H]1CC[C@@]2(C)[C@@H]3C(=O)C[C@H]4C(C)(C)[C@@H](O)CC[C@]4(C)[C@H]3C(=O)C[C@]12C ?
Reply | n

Ask | Any idea what this test logged for c1ccc(/N=C2\SC(c3ccccc3)CN2C23CC4CC(CC(C4)C2)C3)cc1 (configuration not stated) ?
Reply | n

Ask | Any idea what this test logged for CN(C)CCCNC(=O)N/N=C/c1ccccn1 ?
Reply | n

Ask | Any idea what this test logged for CC(=O)NC1C(=O)CC(c2ccccc2)N(C)C1c1ccccc1 (configuration not stated) ?
Reply | n

Ask | Any idea what this test logged for O=c1[nH]nc(-c2ccccc2)c2[nH]c3c(c12)CCCc1ccccc1-3 ?
Reply | n

Ask | Any idea what this test logged for O=C(CCC1C(=O)NC(=S)NC1=O)c1ccc2ccccc2c1 ?
Reply | n

Ask | Any idea what this test logged for CN[C@@H](C)[C@H](NC)c1ccccc1 ?
Reply | n

Ask | Any idea what this test logged for COc1cccc(/C=C(\NC(C)=O)c2nc3cc(Cl)ccc3[nH]2)c1 ?
Reply | n

Ask | Any idea what this test logged for Cc1cn(C2CC(N=[N+]=[N-])C(C(=O)O)O2)c(=O)[nH]c1=O (configuration not stated) ?
Reply | n

Ask | Any idea what this test logged for O=C1NC(N2CCOCC2)=N/C1=C\c1ccco1 ?
Reply | n

Ask | Any idea what this test logged for N#CC(=C1C=CC(=NO)C=C1)c1ccc(Cl)cc1 ?
Reply | n

Ask | Any idea what this test logged for Nc1ccc2c(c1)CN1C(=O)c3ccccc3C1=N2 ?
Reply | n

Ask | Any idea what this test logged for CCC/N=C1\S/C(=C/c2ccc(OC)c(OC)c2)C(=O)N1c1ccccc1 ?
Reply | n
